measurementTarget: furin, P09958;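 further: purified furin at 1:10 enzyme:substrate in 50 mM HEPES pH 7.5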
Sequence (P09958 whole entry): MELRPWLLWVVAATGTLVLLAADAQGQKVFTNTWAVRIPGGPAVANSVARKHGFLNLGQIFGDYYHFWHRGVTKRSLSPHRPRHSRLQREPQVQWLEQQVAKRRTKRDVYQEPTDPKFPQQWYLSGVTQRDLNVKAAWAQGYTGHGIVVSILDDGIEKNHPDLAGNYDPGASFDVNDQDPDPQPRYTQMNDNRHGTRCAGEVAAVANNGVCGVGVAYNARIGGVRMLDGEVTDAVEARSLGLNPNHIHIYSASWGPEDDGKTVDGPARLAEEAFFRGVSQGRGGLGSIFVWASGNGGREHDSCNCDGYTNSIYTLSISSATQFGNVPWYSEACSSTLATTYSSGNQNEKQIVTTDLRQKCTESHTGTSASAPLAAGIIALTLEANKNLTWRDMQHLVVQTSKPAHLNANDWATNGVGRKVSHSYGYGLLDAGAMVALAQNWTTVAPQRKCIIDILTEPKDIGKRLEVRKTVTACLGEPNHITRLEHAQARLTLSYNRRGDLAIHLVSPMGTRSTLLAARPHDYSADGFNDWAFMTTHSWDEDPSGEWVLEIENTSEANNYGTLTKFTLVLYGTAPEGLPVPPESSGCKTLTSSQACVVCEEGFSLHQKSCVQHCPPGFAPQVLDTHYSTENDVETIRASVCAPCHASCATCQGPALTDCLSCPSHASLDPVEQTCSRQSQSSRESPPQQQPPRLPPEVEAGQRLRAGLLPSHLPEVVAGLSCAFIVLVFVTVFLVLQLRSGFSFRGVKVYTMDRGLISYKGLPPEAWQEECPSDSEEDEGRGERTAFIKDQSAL
assayNotes: furin cleavage Z-score vs untreated control; higher = more cleavage, active = 3.5 or more, inactive = 1 or less, 8 variable residues between constant flanks
testConditions: 7.5 min
This is one part of the list. How many sequences the whole screen found active is unknown.
resultType: furin cleavage Z-score

1. CAVYYLTRDPAGNASASA [HC1561] = -0.916
2. CARRKRAGGGAGNASASA [FS-2067] = 4.24
3. CARRKRFPGKAGNASASA [FS-1918] = 0.56
4. CAGAPLGGAAAGNASASA [HC231] = -0.433
5. CAVLVRKRRAAGNASASA [FS-1178] = 12
6. CATWPCSGSWAGNASASA [HC1848] = -0.614
7. CAMEECSQHIAGNASASA [HC1764] = -0.598
